B1: TRIM55 (parent)
chain: YKSFSKEQQTMDNLEKQLICPICL

# Variants of: B1
# TEST: protein stability index of a GFP-peptide fusion (GPS, HEK-293T) (PSI 1-6); higher = more stable;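 further: lentivirally expressed fusions sorted by FACS into six bins by GFP to DsRed ratio, PSI derived from sequencing read proportions per bin multiplied by bin number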
# COND: c terminus: a fixed tail appended
METRIC: protein stability index
In your answer, state the number alone without any accompanying words.

| MUTATION ANNOTATION | protein stability index |
| --- | --- |
| I22M | 2.31 |
| K2E | 1.73 |
| P21F | 1.74 |
| L14D | 2.53 |

// protein stability index lookup, variant = S5N , result: 2.4

// protein stability index lookup, variant = N13T , result: 2.81
